Reported fraction unbound is given for each of the following compounds.
- System: serum albumin (Homo sapiens, UniProt P02768)
- Sequence (P02768 whole entry): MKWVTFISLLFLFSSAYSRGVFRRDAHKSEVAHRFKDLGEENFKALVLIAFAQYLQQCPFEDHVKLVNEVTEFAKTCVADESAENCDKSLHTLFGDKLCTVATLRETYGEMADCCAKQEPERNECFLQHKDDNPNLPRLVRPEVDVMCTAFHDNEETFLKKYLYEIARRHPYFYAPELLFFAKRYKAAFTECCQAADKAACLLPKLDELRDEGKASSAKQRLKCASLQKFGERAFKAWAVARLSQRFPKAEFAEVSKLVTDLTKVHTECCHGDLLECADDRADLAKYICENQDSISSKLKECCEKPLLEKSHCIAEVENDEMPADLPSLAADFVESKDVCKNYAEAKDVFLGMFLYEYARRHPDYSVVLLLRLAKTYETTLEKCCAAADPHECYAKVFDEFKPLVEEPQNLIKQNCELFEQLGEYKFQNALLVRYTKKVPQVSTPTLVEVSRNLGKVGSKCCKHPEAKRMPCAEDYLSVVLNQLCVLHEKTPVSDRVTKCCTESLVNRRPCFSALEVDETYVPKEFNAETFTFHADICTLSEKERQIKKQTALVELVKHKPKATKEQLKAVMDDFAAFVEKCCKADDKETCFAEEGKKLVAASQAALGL
- Method Summary: Binding affinity to human serum albumin by HPLC analysis
- Format: ADME
- Measurement Conditions: read-out: PB (converted)
The answer should be written as a number, with no unit following it.

Reference set, count: 2
Smiles Record | System | fraction unbound
NC(CO)(CO)CO.O=C(O)CCn1c(=O)oc2cc(OCCN3CCCC3)c(Cl)cc21 | serum albumin (Homo sapiens, UniProt P02768) | 0.849
Cc1ccc([C@@H](C)Oc2cc3onc(CCC(=O)O)c3cc2Cl)nn1 | serum albumin (Homo sapiens, UniProt P02768) | 0.108

Need fraction unbound of C[C@@H](Oc1cc2oc(=O)n(CCC(=O)O)c2cc1Cl)c1ccc(Cl)cn1.NC(CO)(CO)CO , thanks. 0.021

Please answer likewise for Cc1ccnc([C@@H](C)Oc2cc3oc(=O)n(CCC(=O)O)c3cc2Cl)c1.NC(CO)(CO)CO 0.056

Please answer likewise for Cc1cccc([C@@H](C)Oc2cc3oc(=O)n(CCC(=O)O)c3cc2Cl)n1.NC(CO)(CO)CO 0.068

Please answer likewise for C[C@H](Oc1cc2oc(=O)n(CCC(=O)O)c2cc1Cl)c1ccccn1.NC(CO)(CO)CO 0.084

Please answer likewise for CCOc1cc2oc(=O)n(CCC(=O)O)c2cc1Cl.NC(CO)(CO)CO 0.113

###

- Method Summary: Lipophilicity, log D of the compound at pH 7.4 by RP-HPLC analysis
- Type: physicochemical
- Measurement Conditions: buffer
Measurement Type: logD
The answer should be written as a number, with no unit following it.

Smiles Record | Measurement Type | Recorded Measurement
CCc1cc2oc(=O)n(CCC(=O)O)c2cc1Cl.NC(CO)(CO)CO | logD | 1.94
O=C(O)CCn1c(=O)oc2cc(Cl)c(Cl)cc21 | logD | 1.61
C[C@@H](Oc1cc2ccn(CCC(=O)O)c2cc1Cl)c1ccccn1 | logD | 2.17

# evaluate next
Need logD of NC(CO)(CO)CO.O=C(O)CCn1c(=O)oc2cc(OC3CC3)c(Cl)cc21 , thanks. 1.64
